Biological target: c-Src (Homo sapiens (Human), UniProt P12931)
Sequence (P12931 whole entry, looked up): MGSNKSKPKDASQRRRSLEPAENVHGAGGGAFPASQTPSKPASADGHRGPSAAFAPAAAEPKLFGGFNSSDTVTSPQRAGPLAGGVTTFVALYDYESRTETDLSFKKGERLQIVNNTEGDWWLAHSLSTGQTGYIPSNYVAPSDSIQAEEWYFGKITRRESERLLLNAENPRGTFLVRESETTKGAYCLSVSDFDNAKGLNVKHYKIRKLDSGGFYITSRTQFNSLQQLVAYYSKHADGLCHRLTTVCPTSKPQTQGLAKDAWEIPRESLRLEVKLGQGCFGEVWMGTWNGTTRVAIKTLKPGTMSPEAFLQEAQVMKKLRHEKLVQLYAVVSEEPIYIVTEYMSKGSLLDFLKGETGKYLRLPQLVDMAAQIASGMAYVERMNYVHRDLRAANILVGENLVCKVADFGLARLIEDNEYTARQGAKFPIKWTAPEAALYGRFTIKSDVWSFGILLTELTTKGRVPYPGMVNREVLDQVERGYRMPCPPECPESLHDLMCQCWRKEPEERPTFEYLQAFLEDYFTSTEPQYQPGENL
// thresholds for IC50 classes: low range = under 30 nM, mid range = from 30 nM up to 80 nM, high range = 80 nM and over

- molecule: "COc1cncc(Nc2cc(Oc3ccc(NC(=O)Nc4cc(C(C)(C)C)cc(CC(N)=O)c4OC)c4ccccc34)ccn2)c1"
  assigned.class: "high range"
- molecule: "COc1cc(Nc2cc(Oc3ccc(NC(=O)Nc4cc(C(C)(C)C)cc(C(=O)NCCN5CC[S+]([O-])CC5)c4OC)c4ccccc34)ccn2)cc(OC)c1"
  assigned.class: "high range"
- molecule: "COc1cc(Nc2cc(Oc3ccc(NC(=O)Nc4cc(C(C)(C)C)cc(CC(N)=O)c4OC)c4ccccc34)ccn2)cc(S(=O)(=O)N(C)C)c1"
  assigned.class: "high range"
- molecule: "COc1c(NC(=O)Nc2ccc(Oc3ccnc(Nc4ccccc4)c3)c3ccccc23)cc(C(C)(C)C)cc1OCP(C)(C)=O [15(e)]"
  assigned.class: "high range"
- molecule: "COc1cc(Nc2nccc(Oc3ccc(NC(=O)Nc4cc(C(C)(C)C)cc(OCP(C)(C)=O)c4OC)c4ccccc34)n2)cc(OC)c1"
  assigned.class: "mid range"
- molecule: "COc1cc(Nc2cc(Oc3ccc(NC(=O)Nc4cc(C(C)(C)C)cc([S+](C)[O-])c4OC)c4ccccc34)ccn2)ccc1C(=O)NCCN1CCOCC1 (centres unmarked)"
  assigned.class: "low range"
- molecule: "COc1cc(Nc2cc(Oc3ccc(NC(=O)Nc4cc(C(C)(C)C)cc(CC(N)=O)c4OC)c4ccccc34)ccn2)cc(C(=O)NCCN2CC[S+]([O-])CC2)c1"
  assigned.class: "low range"
- molecule: "COCCOCCOCCNC(=O)c1cc(Nc2cc(Oc3ccc(NC(=O)Nc4cc(C(C)(C)C)cc(CNC(C)=O)c4OC)c4ccccc34)ccn2)cc(OC)c1"
  assigned.class: "low range"
- molecule: "COCCOCCOCCOc1cc(Nc2nccc(Oc3ccc(NC(=O)Nc4cc(C(C)(C)C)cc(C(=O)NCCN5CCOCC5)c4OC)c4ccccc34)n2)cc(OC)c1"
  assigned.class: "low range"
- molecule: "COc1cc(Nc2cc(Oc3ccc(NC(=O)Nc4cc(C(C)(C)C)cc(P(C)(C)=O)c4OC)c4ccccc34)ccn2)cc(OC)c1"
  assigned.class: "mid range"
- molecule: "COc1c(CC(N)=O)cc(C(C)(C)C)cc1NC(=O)Nc1ccc(Oc2ccnc(NCc3ccccn3)c2)c2ccccc12"
  assigned.class: "high range"
- molecule: "COc1cc(Nc2cc(Oc3ccc(NC(=O)Nc4cc(C(C)(C)C)cc(C(=O)NCCN5CCOCC5)c4OC)c4ccccc34)ccn2)cc(C(=O)NCCN2CCOCC2)c1"
  assigned.class: "mid range"
- molecule: "COc1c(NC(=O)Nc2ccc(Oc3ccnc(Nc4ccccc4)c3)c3ccccc23)cc(C(C)(C)C)cc1P(C)(C)=O"
  assigned.class: "mid range"

---

Target: Syk (Homo sapiens (Human))

- compound: "COc1cc(Nc2cc(Oc3ccc(NC(=O)Nc4cc(C(C)(C)C)cc(P(C)(C)=O)c4OC)c4ccccc34)ccn2)cc(S(=O)(=O)N(C)CCCN2CCOCC2)c1"
  IC50: "> 1160 nM"
- compound: "COc1cc(Nc2cc(Oc3ccc(NC(=O)Nc4cc(C(C)(C)C)cc(CC(N)=O)c4OC)c4ccccc34)ccn2)cc(C(N)=O)c1"
  IC50: "> 1510 nM"
- compound: "COc1cc(Nc2cc(Oc3ccc(NC(=O)Nc4cc(C(C)(C)C)cc(P(C)(C)=O)c4OC)c4ccccc34)ccn2)cc(S(=O)(=O)N(C)CCN2CCOCC2)c1"
  IC50: "> 1100 nM"
- compound: "COCCOCCOCCOc1cc(Nc2nccc(Oc3ccc(NC(=O)Nc4cc(C(C)(C)C)cc(C(=O)NCCN5CCOCC5)c4OC)c4ccccc34)n2)cc(OC)c1"
  IC50: "42 nM"
- compound: "COCCOCCOCCNC(=O)c1cc(Nc2cc(Oc3ccc(NC(=O)Nc4cc(C(C)(C)C)cc(C(=O)NCCN5CCOCC5)c4OC)c4ccccc34)ccn2)cc(OC)c1"
  IC50: "560 nM"
- compound: "COc1c(NC(=O)Nc2ccc(Oc3ccnc(Nc4cc(C)cc(C)c4)c3)c3ccccc23)cc(C(C)(C)C)cc1P(C)(C)=O"
  IC50: "157 nM"
- compound: "COc1cc(Nc2cc(Oc3ccc(NC(=O)Nc4cc(C(C)(C)C)cc(CC(N)=O)c4OC)c4ccccc34)ccn2)cc(C(=O)NCCN2CC[S+]([O-])CC2)c1"
  IC50: "190 nM"
- compound: "COc1cc(C#N)cc(Nc2cc(Oc3ccc(NC(=O)Nc4cc(C(C)(C)C)cc(CC(N)=O)c4OC)c4ccccc34)ccn2)c1"
  IC50: "> 1550 nM"
- compound: "COc1c(CC(N)=O)cc(C(C)(C)C)cc1NC(=O)Nc1ccc(Oc2ccnc(Nc3cccc(OS(C)(=O)=O)c3)c2)c2ccccc12 [38(r)]"
  IC50: "> 1460 nM"
- compound: "COCCOCCOCCNC(=O)c1cc(Nc2cc(Oc3ccc(NC(=O)Nc4cc(C(C)(C)C)cc(S(C)(=O)=O)c4OC)c4ccccc34)ccn2)cc(OC)c1"
  IC50: "> 1200 nM"
- compound: "COc1cc(Nc2cc(Oc3ccc(NC(=O)Nc4cc(C(C)(C)C)cc(P(C)(C)=O)c4OC)c4ccccc34)ccn2)cc(S(=O)(=O)N(C)C)c1"
  IC50: "> 1340 nM"
- compound: "COc1c(NC(=O)Nc2ccc(Oc3ccnc(NCc4ccccn4)c3)c3ccccc23)cc(C(C)(C)C)cc1P(C)(C)=O [38(e)]"
  IC50: "> 1600 nM"
